- TARGET DESC: T1, human CXCR4-enriched lipoparticles (LEV101, Integral Molecular) (human, UniProt P61073 1-352)
- T1 construct: Bought reagent; CXCR4 held in lipoparticles captured by biotinylated WGA on an SA chip; also called Lipoparticles containing CXCR4 proteins
- T1 sequence (P61073 whole entry): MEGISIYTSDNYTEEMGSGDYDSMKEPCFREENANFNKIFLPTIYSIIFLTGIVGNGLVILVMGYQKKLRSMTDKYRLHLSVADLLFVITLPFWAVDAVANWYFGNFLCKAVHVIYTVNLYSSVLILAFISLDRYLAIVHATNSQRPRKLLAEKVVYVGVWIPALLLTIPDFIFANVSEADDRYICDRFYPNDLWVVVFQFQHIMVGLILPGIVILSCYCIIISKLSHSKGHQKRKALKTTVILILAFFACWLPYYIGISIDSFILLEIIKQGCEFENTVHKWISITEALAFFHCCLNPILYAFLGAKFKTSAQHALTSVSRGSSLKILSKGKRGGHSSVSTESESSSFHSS
- TEST PROTOCOL: biosensor kinetic titration, Fab over captured human CXCR4 lipoparticles
MEASURED ENDPOINT: Kd

h3G10.1.91 VH / h3G10.A58A VL Fab (Fab, V domains shown, Tested as Fab) VH: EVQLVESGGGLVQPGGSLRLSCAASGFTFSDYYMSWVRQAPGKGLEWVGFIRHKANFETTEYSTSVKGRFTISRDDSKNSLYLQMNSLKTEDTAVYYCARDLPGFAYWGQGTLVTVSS VL: DIVMTQSPDSLAVSLGERATINCKSSQSLFNSHTRKNYLAWYQQKPGQPPKLLIYWASARGSGVPDRFSGSGSGTDFTLTISSLQAEDVAVYYCKQSFRLRTFGGGTKVEIK	0.38 nM
h3G10.A57 VH / h3G10 VL Fab (Fab, V domains shown, Tested as Fab; also called h3G10.A57 VH / h3G10 L) VH: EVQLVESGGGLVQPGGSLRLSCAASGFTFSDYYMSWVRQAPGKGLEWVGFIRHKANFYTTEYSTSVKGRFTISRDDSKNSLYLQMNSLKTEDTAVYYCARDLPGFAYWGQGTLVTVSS VL: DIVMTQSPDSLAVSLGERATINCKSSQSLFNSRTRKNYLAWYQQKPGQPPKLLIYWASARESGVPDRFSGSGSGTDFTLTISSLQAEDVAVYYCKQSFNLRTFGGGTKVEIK	1.22 nM

q: Tell me the measured Kd of h3G10.1.91 VH / h3G10.A58B VL Fab (Fab, V domains shown, Tested as Fab) VH: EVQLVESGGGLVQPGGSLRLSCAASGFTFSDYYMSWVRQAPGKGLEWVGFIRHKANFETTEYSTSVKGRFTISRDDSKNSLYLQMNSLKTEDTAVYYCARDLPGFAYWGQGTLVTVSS VL: DIVMTQSPDSLAVSLGERATINCKSSQSLFNSHTRKNYLAWYQQKPGQPPKLLIYWASARGSGVPDRFSGSGSGTDFTLTISSLQAEDVAVYYCKQSFNLRTFGGGTKVEIK , please.
a: 0.36 nM

Every entry's value here was drawn from patent US20150037328A1.
